target entity: 17-beta-hydroxysteroid dehydrogenase type 1 (Homo sapiens)
method description: Inhibition of [3H]E1 binding to human placental 17beta-HSD1 at 1 uM after 10 mins by fluid scintillation counting
// label = 1 (yes) if inhibition is not less than 70%, otherwise 0 (no)

These solved cases illustrate the format of a correct answer.
Oc1ccc2cc(-c3ccccc3)ccc2c1-c1cncnc1 ... 0 (no)
Oc1ccccc1-c1ccc2c(-c3cncnc3)cccc2c1 ... 0 (no)
COc1ncc(-c2c(O)ccc3cc(-c4cccc(O)c4)ccc23)c(OC)n1 ... 1 (yes)

Input: Would you say Oc1cccc(-c2ccc3c(-c4ccc5[nH]ccc5c4)c(O)ccc3c2)c1 shows inhibition at minimum 70%?
Output: 1 (yes)

Input: Would you say Oc1cccc(-c2ccc3c(-c4cncnc4)cccc3c2)c1 shows inhibition at minimum 70%?
Output: 0 (no)

Input: In plain terms: is recorded inhibition at least 70% for Oc1ccc(-c2ccc3c(-c4cncnc4)c(O)ccc3c2)cc1 ?
Output: 0 (no)

Input: Decide: inhibition of Oc1cccc(-c2ccc3c(-c4cncnc4)c(O)ccc3c2)c1 >= 70%?
Output: 0 (no)

Input: For this compound, is measured inhibition 70% or higher? Oc1ccccc1-c1ccc2c(-c3cncnc3)c(O)ccc2c1
Output: 0 (no)
